# Assayed system: recombinant guanylate cyclase reporter cell line (Rattus norvegicus, UniProt P19686+P20595)
# Construct: expressed in transfected cells; host or cells: recombinant reporter cell line
# Sequence (P19686 whole entry): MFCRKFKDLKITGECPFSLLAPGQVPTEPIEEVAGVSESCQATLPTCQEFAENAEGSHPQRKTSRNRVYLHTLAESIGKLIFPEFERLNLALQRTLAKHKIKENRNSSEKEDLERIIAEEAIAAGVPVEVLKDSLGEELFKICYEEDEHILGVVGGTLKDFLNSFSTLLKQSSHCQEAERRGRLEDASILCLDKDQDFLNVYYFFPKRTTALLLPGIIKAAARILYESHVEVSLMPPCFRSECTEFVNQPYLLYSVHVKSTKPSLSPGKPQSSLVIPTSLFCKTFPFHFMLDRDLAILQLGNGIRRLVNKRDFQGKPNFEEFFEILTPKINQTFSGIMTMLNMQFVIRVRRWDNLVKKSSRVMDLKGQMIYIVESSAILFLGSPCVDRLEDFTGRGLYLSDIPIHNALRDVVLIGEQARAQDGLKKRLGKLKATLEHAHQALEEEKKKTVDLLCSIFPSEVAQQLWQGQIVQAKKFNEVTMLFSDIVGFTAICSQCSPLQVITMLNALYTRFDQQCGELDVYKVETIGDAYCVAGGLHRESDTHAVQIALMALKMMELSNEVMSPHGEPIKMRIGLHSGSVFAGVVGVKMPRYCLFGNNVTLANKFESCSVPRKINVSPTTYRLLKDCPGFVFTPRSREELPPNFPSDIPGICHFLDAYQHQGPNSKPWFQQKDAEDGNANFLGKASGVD
# Sequence (P20595 whole entry): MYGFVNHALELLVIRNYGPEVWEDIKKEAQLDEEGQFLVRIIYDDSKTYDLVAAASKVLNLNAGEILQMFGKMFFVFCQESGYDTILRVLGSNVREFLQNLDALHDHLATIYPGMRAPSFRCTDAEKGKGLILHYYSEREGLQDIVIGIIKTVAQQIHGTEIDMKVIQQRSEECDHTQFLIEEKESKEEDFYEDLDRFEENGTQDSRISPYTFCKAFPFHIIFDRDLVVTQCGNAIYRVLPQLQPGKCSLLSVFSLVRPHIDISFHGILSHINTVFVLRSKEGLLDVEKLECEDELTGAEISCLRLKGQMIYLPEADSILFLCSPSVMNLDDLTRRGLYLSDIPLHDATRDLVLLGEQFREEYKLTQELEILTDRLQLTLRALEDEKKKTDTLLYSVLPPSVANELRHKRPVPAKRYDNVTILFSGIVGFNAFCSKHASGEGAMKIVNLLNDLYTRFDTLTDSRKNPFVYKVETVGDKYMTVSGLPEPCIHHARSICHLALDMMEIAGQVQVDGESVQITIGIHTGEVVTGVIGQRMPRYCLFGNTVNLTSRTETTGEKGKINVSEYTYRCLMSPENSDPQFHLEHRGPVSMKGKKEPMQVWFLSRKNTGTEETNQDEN
# Method description: Effect on a recombinant guanylate cyclase reporter cell line
# Format: cell-based

- Chemical smiles: "CC1(C)C(=O)Nc2nc(-c3nn(Cc4ncc(F)cc4F)c4ncc(F)cc34)nnc21"
  Result units: "µM"
  MEC (minimum effective concentration): 1.0
- Chemical smiles: "CC1(C)C(=O)Nc2nc(-c3nn(Cc4ccncc4F)c4ncc(F)cc34)nnc21"
  Result units: "µM"
  MEC (minimum effective concentration): 3.0
- Chemical smiles: "CC1(C)C(=O)Nc2nc(-c3nn(Cc4c(F)cncc4F)c4ncc(F)cc34)ncc21"
  Result units: "µM"
  MEC (minimum effective concentration): 1.0
- Chemical smiles: "CC1(C)C(=O)Nc2nc(-c3nn(Cc4cncnc4)c4ncc(F)cc34)nc(N)c21"
  Result units: "µM"
  MEC (minimum effective concentration): 0.1
- Chemical smiles: "CC1(C)C(=O)Nc2nc(-c3nn(Cc4ccncc4F)c4ncc(F)cc34)nc(N)c21"
  Result units: "µM"
  MEC (minimum effective concentration): 1.0
- Chemical smiles: "CC1(C)C(=O)Nc2nc(-c3nn(Cc4cncnc4)c4ncc(F)cc34)nnc21"
  Result units: "µM"
  MEC (minimum effective concentration): 0.1
- Chemical smiles: "CC1(C)C(=O)Nc2nc(-c3nn(Cc4ncccc4F)c4ncc(F)cc34)nc(N)c21"
  Result units: "µM"
  MEC (minimum effective concentration): 0.3
- Chemical smiles: "CC1(C)C(=O)Nc2nc(-c3nn(Cc4ncccc4F)c4ncc(F)cc34)nnc21"
  Result units: "µM"
  MEC (minimum effective concentration): 1
- Chemical smiles: "CC1(C)C(=O)Nc2nc(-c3nn(Cc4c(F)cncc4F)c4ncc(F)cc34)nc(N)c21"
  Result units: "µM"
  MEC (minimum effective concentration): 0.3
- Chemical smiles: "CC1(C)C(=O)Nc2nc(-c3nn(Cc4cncnc4)c4ncc(F)cc34)ncc21"
  Result units: "µM"
  MEC (minimum effective concentration): 0.1
- Chemical smiles: "CC1(C)C(=O)Nc2nc(-c3nn(Cc4ncccn4)c4ncc(F)cc34)nnc21"
  Result units: "µM"
  MEC (minimum effective concentration): 10
- Chemical smiles: "CC1(C)C(=O)Nc2nc(-c3nn(Cc4ncccc4F)c4ncc(F)cc34)nc(I)c21"
  Result units: "µM"
  MEC (minimum effective concentration): 0.3
- Chemical smiles: "CC1(C)C(=O)Nc2nc(-c3nn(Cc4sccc4F)c4ncc(F)cc34)nnc21"
  Result units: "µM"
  MEC (minimum effective concentration): 0.01
- Chemical smiles: "CC1(C)C(=O)Nc2nc(-c3nn(Cc4ncccc4F)c4ncc(F)cc34)nc(O)c21"
  Result units: "µM"
  MEC (minimum effective concentration): 3
- Chemical smiles: "CC1(C)C(=O)Nc2nc(-c3nn(Cc4c(F)cncc4F)c4ncc(F)cc34)nc(O)c21"
  Result units: "µM"
  MEC (minimum effective concentration): 3.0
- Chemical smiles: "CC1(C)C(=O)Nc2nc(-c3nn(Cc4ccncc4F)c4ncc(F)cc34)ncc21"
  Result units: "µM"
  MEC (minimum effective concentration): 1.0
- Chemical smiles: "CC1(C)C(=O)Nc2nc(-c3nn(Cc4ncccc4F)c4ncc(F)cc34)ncc21"
  Result units: "µM"
  MEC (minimum effective concentration): 0.03
- Chemical smiles: "CC1(C)C(=O)Nc2nc(-c3nn(Cc4c(F)cncc4F)c4ncc(F)cc34)nnc21"
  Result units: "µM"
  MEC (minimum effective concentration): 3.0
